Would you kindly list IC50 for each of these compounds?
Bridge positions count the residues as written; N and C are the ends. Square brackets hold non-standard residues; d marks the D form. Peptide text beside a SMILES is read from it. Trp(βS-Me) = C[C@@H](c1c[nH]c2ccccc12)[C@H](N)C(=O)O
# number only, unit nM dropped from output

Qu. Find IC50 (Somatostatin receptor type 2 (Homo sapiens, UniProt P30874)) for the entry C[C@@H](O)[C@@H]1NC(=O)[C@H](CCCCN)NC(=O)[C@H](Cc2c[nH]c3ccccc23)NC(=O)[C@H](Cc2ccccc2)NC(=O)[C@H](Cc2ccccc2)NC(=O)[C@@H](NC(=O)[C@@H](N)Cc2ccc(O)cc2)CSSC[C@@H](C(=O)O)NC(=O)[C@H](Cc2ccccc2)NC1=O (H-YCFFWKTFC-OH; disulfide 2-9)
Ans. 179

Qu. Fill in the recorded IC50 for this compound, with Somatostatin receptor type 2 (Homo sapiens, UniProt P30874) as test system: C[C@@H](O)[C@@H]1NC(=O)[C@H](CCCCN)NC(=O)[C@H]([C@@H](C)c2c[nH]c3ccccc23)NC(=O)[C@H](Cc2ccccc2)NC(=O)[C@H](Cc2ccccc2)NC(=O)[C@@H](N)CSSC[C@@H](C(=O)O)NC(=O)[C@H](Cc2ccccc2)NC1=O (H-CFF[Trp(βS-Me)]KTFC-OH; disulfide 1-8)
Sequence (P30874 whole entry): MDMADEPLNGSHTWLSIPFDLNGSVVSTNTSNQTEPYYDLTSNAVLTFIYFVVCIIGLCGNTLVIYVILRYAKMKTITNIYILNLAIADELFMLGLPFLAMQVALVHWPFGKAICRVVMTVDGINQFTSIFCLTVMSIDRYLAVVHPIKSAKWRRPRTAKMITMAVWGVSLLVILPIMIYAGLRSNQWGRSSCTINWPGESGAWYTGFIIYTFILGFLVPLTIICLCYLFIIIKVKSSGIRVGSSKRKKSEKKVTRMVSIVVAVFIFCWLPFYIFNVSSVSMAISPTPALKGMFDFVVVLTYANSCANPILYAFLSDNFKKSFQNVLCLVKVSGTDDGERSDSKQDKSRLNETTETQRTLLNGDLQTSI
Ans. 27

* * *

Quick record of IC50 values for UniProt:P30872.
Sequence (P30872 whole entry): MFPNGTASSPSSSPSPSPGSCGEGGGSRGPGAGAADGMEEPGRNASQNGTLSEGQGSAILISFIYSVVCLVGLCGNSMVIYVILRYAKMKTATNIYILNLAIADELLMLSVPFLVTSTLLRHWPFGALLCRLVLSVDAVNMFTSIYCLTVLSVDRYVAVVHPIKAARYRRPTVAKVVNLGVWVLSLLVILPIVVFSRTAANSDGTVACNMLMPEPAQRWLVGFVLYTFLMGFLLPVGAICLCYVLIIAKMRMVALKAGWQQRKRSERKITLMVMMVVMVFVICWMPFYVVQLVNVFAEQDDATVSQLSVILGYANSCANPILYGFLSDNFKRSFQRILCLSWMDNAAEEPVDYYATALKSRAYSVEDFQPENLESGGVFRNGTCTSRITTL
Numbered stars: 1 amine (or outer) side, 2 acyl side, 3 side chain; on linkers, the order of the positions; unused ones are H or OH. Bridge positions count the residues as written; N and C are the ends. Square brackets hold non-standard residues; d marks the D form. Peptide text beside a SMILES is read from it. X3 = C[C@H](c1c[nH]c2ccccc12)[C@@H](N[*:1])C(=O)[*:2]; Trp(βS-Me) = C[C@@H](c1c[nH]c2ccccc12)[C@H](N)C(=O)O
// units = µM; emit number, no label

Qu. Recorded IC50 for C[C@@H](O)[C@@H]1NC(=O)[C@H](CCCCN)NC(=O)[C@H](Cc2c[nH]c3ccccc23)NC(=O)[C@H](Cc2ccccc2)NC(=O)[C@H](Cc2ccccc2)NC(=O)[C@@H](N)CSSC[C@@H](C(=O)O)NC(=O)[C@H](Cc2ccccc2)NC1=O (H-CFFWKTFC-OH; disulfide 1-8) , please?
Ans. 0.0053

Qu. Item under review: C[C@H](c1c[nH]c2ccccc12)[C@H]1NC(=O)[C@H](Cc2ccccc2)NC(=O)[C@H](Cc2ccccc2)NC(=O)[C@@H](N)CSSC[C@@H](C(=O)O)NC(=O)[C@H](Cc2ccccc2)NC(=O)[C@H]([C@@H](C)O)NC(=O)[C@H](CCCCN)NC1=O (H-CFF[X3]KTFC-OH; disulfide 1-8) . Reported IC50?
Ans. 0.049

Qu. I would be grateful if you could share the reported IC50 for C[C@@H](O)[C@@H]1NC(=O)[C@H](CCCCN)NC(=O)[C@H](Cc2c[nH]c3ccccc23)NC(=O)[C@H](Cc2ccccc2)NC(=O)[C@H](Cc2ccccc2)NC(=O)[C@@H](N)CSSC[C@@H](C(=O)O)NC(=O)[C@H](Cc2ccc(O)cc2)NC1=O (stereo in doubt) .
Ans. 0.0065

Qu. IC50 for C[C@@H](O)[C@@H]1NC(=O)[C@H](CCCCN)NC(=O)[C@H](Cc2c[nH]c3ccccc23)NC(=O)[C@H](Cc2ccccc2)NC(=O)[C@H](Cc2ccccc2)NC(=O)[C@@H](NC(=O)[C@@H](N)Cc2ccc(O)cc2)CSSC[C@@H](C(=O)O)NC(=O)[C@H](Cc2ccccc2)NC1=O (H-YCFFWKTFC-OH; disulfide 2-9) ?
Ans. 0.013

Qu. Query: IC50; subject: C[C@@H](O)[C@@H]1NC(=O)[C@H](CCCCN)NC(=O)[C@@H](Cc2c[nH]c3ccccc23)NC(=O)[C@H](Cc2ccccc2)NC(=O)[C@H](Cc2ccccc2)NC(=O)[C@@H](N)CSSC[C@@H](C(=O)O)NC(=O)[C@H](Cc2ccccc2)NC1=O (H-CFF[dW]KTFC-OH; disulfide 1-8)
Ans. 0.027

Qu. State the recorded IC50 for this entry: C[C@@H](O)[C@@H]1NC(=O)[C@H](CCCCN)NC(=O)[C@H]([C@@H](C)c2c[nH]c3ccccc23)NC(=O)[C@H](Cc2ccccc2)NC(=O)[C@H](Cc2ccccc2)NC(=O)[C@@H](NC(=O)[C@@H](N)Cc2ccc(O)cc2)CSSC[C@@H](C(=O)O)NC(=O)[C@H](Cc2ccccc2)NC1=O (H-YCFF[Trp(βS-Me)]KTFC-OH; disulfide 2-9)
Ans. 0.088

Qu. What IC50 value was documented for this molecule, C[C@@H](O)[C@@H]1NC(=O)[C@H](CCCCN)NC(=O)[C@H]([C@@H](C)c2c[nH]c3ccccc23)NC(=O)[C@H](Cc2ccccc2)NC(=O)[C@H](Cc2ccccc2)NC(=O)[C@@H](N)CSSC[C@@H](C(=O)O)NC(=O)[C@H](Cc2ccccc2)NC1=O (H-CFF[Trp(βS-Me)]KTFC-OH; disulfide 1-8) ?
Ans. 0.021
